Format: physicochemical
Conditions: Buffer pH 7.4, 313.15 K
Parameter: mole fraction solubility (x)
Please make sure the unit comes right after the number.

The cases that follow already have their mole fraction solubility (x) on record.
CN1CCc2c(c3cc(Cl)ccc3n2CCc2n[nH]c(=S)n2C)C1 [V]: 6.07 x · 10^6
CN1CCc2c(c3ccccc3n2CCc2n[nH]c(=S)n2C)C1 [Compound I]: 2.42 x · 10^6
COc1ccc2c(c1)c1c(n2CCc2n[nH]c(=S)n2C)CCN(C)C1 [III]: 10.09 x · 10^6
CN1CCc2c(c3cc(F)ccc3n2CCc2n[nH]c(=S)n2C)C1 [Compound IV]: 14.60 x · 10^6

Would you kindly look at the next entry?
mole fraction solubility (x) measured on Cc1ccc2c(c1)c1c(n2CCc2n[nH]c(=S)n2C)CCN(C)C1 [Compound II] = 3.21 x · 10^6

----------
Assay type: physicochemical
Conditions: Buffer pH 7.4, 298.15 K
Parameter: mole fraction solubility (x) (x · 10^6)
Write the value in x · 10^6 as a bare number.

The cases that follow already have their mole fraction solubility (x) on record.
CN1CCc2c(c3cc(Cl)ccc3n2CCc2n[nH]c(=S)n2C)C1 [V]: 3.25
Cc1ccc2c(c1)c1c(n2CCc2n[nH]c(=S)n2C)CCN(C)C1 [Compound II]: 1.96
CN1CCc2c(c3cc(F)ccc3n2CCc2n[nH]c(=S)n2C)C1 [Compound IV]: 9.60
CN1CCc2c(c3ccccc3n2CCc2n[nH]c(=S)n2C)C1 [Compound I]: 1.86

Would you kindly look at the next entry?
mole fraction solubility (x) measured on COc1ccc2c(c1)c1c(n2CCc2n[nH]c(=S)n2C)CCN(C)C1 [III] = 6.55

----------
Type: physicochemical
Conditions: 1-octanol, 298.15 K
Assign class by mole fraction solubility (x): not lower than 1 x · 10^4 means Criterion met; lower than 1 x · 10^4 means Criterion not met.

Known results for molecules:
CN1CCc2c(c3ccccc3n2CCc2n[nH]c(=S)n2C)C1: Criterion met
CN1CCc2c(c3cc(Cl)ccc3n2CCc2n[nH]c(=S)n2C)C1: Criterion met
COc1ccc2c(c1)c1c(n2CCc2n[nH]c(=S)n2C)CCN(C)C1: Criterion not met

Prompt line: Tell me whether mole fraction solubility (x) is at least 1 x · 10^4 here: `Cc1ccc2c(c1)c1c(n2CCc2n[nH]c(=S)n2C)CCN(C)C1`
Response line: Criterion met

Prompt line: Tell me whether mole fraction solubility (x) is at least 1 x · 10^4 here: `CN1CCc2c(c3cc(F)ccc3n2CCc2n[nH]c(=S)n2C)C1`
Response line: Criterion met

----------
Test system: glutamate-induced 45Ca2+ uptake into synaptosomes of rat brain cortex
Assay: Effect on glutamate-induced 45Ca2+ uptake into synaptosomes of rat brain cortex
Assay type: biochemical, Wistar rats
Conditions: compound 1 μM; 200 μM glutamate, 5 min, 37 °C
hey, just use true (1) if measured Percentage 45Ca2+ of Control (Control – 100%) is less than 90%, otherwise false (0)

Known results for compounds:
Cc1ccc2c(c1)c1c(n2CCc2ccc(C)nc2)CCN(C)C1 [Dimebon, reference compound]: true (1)
COc1ccc2c(c1)c1c(n2CCc2n[nH]c(=S)n2C)CCN(C)C1: true (1)
Cc1ccc2c(c1)c1c(n2CCc2n[nH]c(=S)n2C)CCN(C)C1: false (0)
CN1CCc2c(c3cc(Cl)ccc3n2CCc2n[nH]c(=S)n2C)C1: false (0)
CN1CCc2c(c3ccccc3n2CCc2n[nH]c(=S)n2C)C1: false (0)

Prompt line: Record `CN1CCc2c(c3cc(F)ccc3n2CCc2n[nH]c(=S)n2C)C1` : is its Percentage 45Ca2+ of Control (Control – 100%) strictly below 90%?
Response line: true (1)
